experiment summary: chemical recovery from spiked human plasma; higher = better extraction
condition notes: pooled human plasma; extraction method: SPE only (HLB 96-well), PES comparison experiment
property label: chemical recovery

[
  {
    "compound": "Cn1ccnc1S",
    "chemical recovery": "0.192%"
  },
  {
    "compound": "Cc1ccc(OP(=O)(Oc2ccc(C)cc2)Oc2ccc(C)cc2)cc1 [Tricresylphosphate]",
    "chemical recovery": "25.4%"
  },
  {
    "compound": "CC(COc1ccc(Oc2ccccc2)cc1)Oc1ccccn1 (stereo not given)",
    "chemical recovery": "23%"
  },
  {
    "compound": "Nc1ccc2c(n1)[nH]c1ccccc12 [2-Amino-9H-pyrido[2,3-b]indole (AalphaC)]",
    "chemical recovery": "45.3%"
  },
  {
    "compound": "CC(C)NCC(O)COc1cccc2ccccc12 (stereo not given)",
    "chemical recovery": "50%"
  }
]

Noted for "Clc1ccc2[nH]nnc2c1" : its chemical recovery reads 52.8%

chemical recovery measured on "c1cc2c3c(cccc3c1)CC2" = 3.64%

Reported chemical recovery for CCC(=O)OCC(=O)[C@@]1(OC(=O)CC)[C@@H](C)C[C@H]2[C@@H]3CCC4=CC(=O)C=C[C@]4(C)[C@@]3(F)[C@@H](O)C[C@@]21C [Betamethasone dipropionate] was 39.3%

Entry "CCCCCCCCCCCC[N+](C)(C)Cc1ccccc1" ; chemical recovery = 46.5%

Form field chemical recovery, entry "O=C1CN(/N=C/c2ccc([N+](=O)[O-])o2)C(=O)N1" : 54.8%

// recorded chemical recovery for Clc1ccc(COC(Cn2ccnc2)c2ccc(Cl)cc2Cl)c(Cl)c1 (stereo not given) : 40.4%

###

experiment summary: chemical recovery by SPE of plasma after PDMS sampling; higher = better extraction
condition notes: pooled human plasma; extraction method: HLB SPE of plasma after PES; equilibration time (d): 3
property label: chemical recovery by SPE of plasma
Mention the unit after the number when you answer.

The recorded chemical recovery by SPE of plasma for "C=Cc1c2ccccc2cc2ccccc12" is 3.05%

chemical recovery by SPE of plasma reading for CCCCCCCCCCCC[N+](C)(C)[O-] [N,N-Dimethyldodecylamine N-oxide] : 17.7%

The molecule "Fc1ccc(Oc2ccnc3cc(Cl)cc(Cl)c23)cc1" showed chemical recovery by SPE of plasma equal to 0.232%

The measured chemical recovery by SPE of plasma associated with "C/C(=N\C#N)N(C)Cc1ccc(Cl)nc1" reads 42.3%

Record "COCCN(C(=O)C(=O)O)c1c(C)cccc1C" , field chemical recovery by SPE of plasma: 69.4%

The reported chemical recovery by SPE of plasma of the molecule "CC(=O)[C@@]1(O)CC[C@H]2[C@@H]3C=C(Cl)C4=CC(=O)[C@@H]5C[C@@H]5[C@]4(C)[C@H]3CC[C@@]21C" was 4.61%

Measured chemical recovery by SPE of plasma, "CCOP(=S)(OCC)SCn1nnc2ccccc2c1=O" : 2.42%

Notebook: CCCCCCCCCCCC(=O)N(CCO)CCO [Lauryl diethanolamide] , chemical recovery by SPE of plasma read as 18.5%

Entry "COc1cc(OC)nc(NC(=O)NS(=O)(=O)N(C)S(C)(=O)=O)n1" , chemical recovery by SPE of plasma reported as 49.1%

###

chemical recovery into PDMS values, listed per item
experiment summary: chemical recovery into PDMS from spiked human plasma; higher = better extraction
condition notes: pooled human plasma; extraction method: PES with PDMS; equilibration time (d): 1
The response must be a number in % with no trailing unit.

Solved entries (count: 4):
[
  {
    "molecule": "Cc1ccc(NC(=O)N(C)C)cc1Cl",
    "chemical recovery into PDMS [%]": 32
  },
  {
    "molecule": "CCCNCCOc1c(Cl)cc(Cl)cc1Cl",
    "chemical recovery into PDMS [%]": 0.602
  },
  {
    "molecule": "CCN(CC)c1nc(C)cc(OP(=S)(OC)OC)n1",
    "chemical recovery into PDMS [%]": 29.7
  },
  {
    "molecule": "CC(C)C(=O)Nc1ccc([N+](=O)[O-])c(C(F)(F)F)c1 [Flutamide]",
    "chemical recovery into PDMS [%]": 32.4
  }
]

Lab note: measured chemical recovery into PDMS of "C1=Cc2ccccc2Nc2ccccc21" was 2.55

Kindly note the recorded chemical recovery into PDMS for O=c1ccc2ccccc2[nH]1 [2-Hydroxyquinoline] , which is 10.9

Input "O=C(O)C(F)(F)C(F)(F)C(F)(F)C(F)(F)C(F)(F)C(F)(F)F" . Output chemical recovery into PDMS: 0.0266

The reported value for "CC[C@@]1([C@@H]2O[C@@H]([C@H]3O[C@@](O)(CO)[C@H](C)C[C@@H]3C)C[C@@H]2C)CC[C@H]([C@]2(C)CC[C@]3(C[C@H](O)[C@@H](C)[C@@H]([C@@H](C)[C@@H](OC)[C@H](C)C(=O)O)O3)O2)O1" in terms of chemical recovery into PDMS is 37.1

// "Clc1cc(Cl)c(-c2ccc(Cl)c(Cl)c2Cl)cc1Cl" : chemical recovery into PDMS value = 67.4

For record CC(=O)c1cc2c(cc1C)C(C)(C)C(C)C2(C)C (stereo not given) [Phantolide] the listed chemical recovery into PDMS is 32.9

Documented chemical recovery into PDMS of "Oc1ccc(Cl)cc1Cc1ccccc1" : 13.4

Summary for this molecule, "ClC(Cl)=C(c1ccc(Cl)cc1)c1ccc(Cl)cc1" : chemical recovery into PDMS is 83.8

###

experiment summary: chemical recovery from spiked human plasma; higher = better extraction
condition notes: pooled human plasma; extraction method: SPE only (HLB 96-well)
Class key for chemical recovery values: low value (below 9%), medium value (9% to below 40%), high value (40% or more)

[
  {
    "compound": "CNC(=O)/C(=N/OC)c1ccccc1COc1cc(C)ccc1C",
    "cat": "medium value"
  },
  {
    "compound": "CCCCCCCCCCCCS(=O)(=O)O",
    "cat": "medium value"
  },
  {
    "compound": "CN(C)CC(c1ccc(O)cc1)C1(O)CCCCC1 (stereo unspecified)",
    "cat": "medium value"
  },
  {
    "compound": "Cc1cc(Cc2ccc(N)c(C)c2)ccc1N",
    "cat": "medium value"
  },
  {
    "compound": "CCN(CC)c1ccccc1",
    "cat": "low value"
  },
  {
    "compound": "O=C(Nc1ccccc1)NC1CCCCC1",
    "cat": "high value"
  },
  {
    "compound": "c1ccc(-c2cccc(-c3ccccc3)c2)cc1",
    "cat": "low value"
  },
  {
    "compound": "CCc1cccc(C)c1N(C(=O)C(=O)O)C(C)COC (stereo unspecified)",
    "cat": "medium value"
  },
  {
    "compound": "Cc1cc(C(F)(C(F)(F)F)C(F)(F)F)ccc1NC(=O)c1cccc(I)c1C(=O)NC(C)(C)CS(C)(=O)=O [Flubendiamide]",
    "cat": "medium value"
  },
  {
    "compound": "Fc1ccc([C@@H]2CCNC[C@H]2COc2ccc3c(c2)OCO3)cc1",
    "cat": "high value"
  }
]

QUERY: Which category fits this record: CC(CN1c2ccccc2Sc2ccccc21)N(C)C (stereo unspecified)
RESULT: high value

QUERY: Band assignment needed for "ClC(Cl)=C(c1ccc(Cl)cc1)c1ccc(Cl)cc1" please.
RESULT: low value

QUERY: Sort into band: O=c1[nH]c2ccccc2s1 [2-Hydroxybenzothiazole]
RESULT: high value

###

Catalogue of chemical recovery values
experiment summary: chemical recovery from spiked human plasma; higher = better extraction
condition notes: pooled human plasma; extraction method: solvent precipitation (ACN + hexane)
The figure you give is taken to be in %; do not add the unit.

[
  {
    "chemical smiles": "O=C(O)C(F)(F)C(F)(F)C(F)(F)C(F)(F)C(F)(F)C(F)(F)C(F)(F)C(F)(F)C(F)(F)C(F)(F)C(F)(F)C(F)(F)C(F)(F)F",
    "chemical recovery, %": 41.3
  },
  {
    "chemical smiles": "CN(C)c1ccncc1",
    "chemical recovery, %": 60.5
  },
  {
    "chemical smiles": "O=C1C[C@@H]2OCC=C3CN4CC[C@]56c7ccccc7N1[C@H]5[C@H]2[C@H]3C[C@H]46",
    "chemical recovery, %": 59.5
  },
  {
    "chemical smiles": "c1ccc2cc3c(ccc4ccccc43)cc2c1",
    "chemical recovery, %": 20.2
  },
  {
    "chemical smiles": "CO/C=C(/C(=O)OC)c1ccccc1COc1cccc(C(F)(F)F)n1",
    "chemical recovery, %": 63.7
  }
]

Entry under test: "Clc1cc(-c2cc(Cl)c(Cl)c(Cl)c2Cl)c(Cl)c(Cl)c1Cl" . Its chemical recovery was 2.72

The reported value for "O=C(O)C(F)(F)C(F)(F)C(F)(F)C(F)(F)F" in terms of chemical recovery is 78.1

chemical recovery for "COC(=O)Nc1nc2ccccc2[nH]1" is 76.8
